SYSTEM TESTED: BTK (Homo sapiens (Human), UniProt Q06187)
Sequence (Q06187 whole entry): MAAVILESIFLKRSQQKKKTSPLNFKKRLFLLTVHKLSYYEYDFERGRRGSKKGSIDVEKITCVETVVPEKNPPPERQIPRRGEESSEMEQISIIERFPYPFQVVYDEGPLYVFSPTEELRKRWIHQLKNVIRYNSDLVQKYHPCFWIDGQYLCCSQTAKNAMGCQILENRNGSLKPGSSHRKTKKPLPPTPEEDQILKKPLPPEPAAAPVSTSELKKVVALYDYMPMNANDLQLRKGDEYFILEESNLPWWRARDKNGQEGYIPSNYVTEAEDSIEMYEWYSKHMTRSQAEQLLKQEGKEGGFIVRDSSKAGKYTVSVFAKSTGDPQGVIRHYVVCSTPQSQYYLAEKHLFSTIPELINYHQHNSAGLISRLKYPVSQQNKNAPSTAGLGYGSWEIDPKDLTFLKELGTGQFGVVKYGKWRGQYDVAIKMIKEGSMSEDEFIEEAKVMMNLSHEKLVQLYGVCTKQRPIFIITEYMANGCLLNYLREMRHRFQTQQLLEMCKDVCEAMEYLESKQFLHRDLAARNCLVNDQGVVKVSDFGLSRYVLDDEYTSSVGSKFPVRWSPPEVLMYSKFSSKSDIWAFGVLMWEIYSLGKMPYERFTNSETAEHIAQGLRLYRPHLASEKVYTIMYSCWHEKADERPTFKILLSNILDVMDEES
VALUE TYPE: Ki

Worked cases, answers included:
INSERT INTO measurements (mol, value_type, meas_value) VALUES
  ('C=C(C#N)C(=O)NCCOc1cccc(Nc2cc(-c3cc(F)cc(-n4ncc5c6c(sc5c4=O)CCCC6)c3CO)cn(C)c2=O)n1', 'Ki', '0.576 nM'),
  ('C=CC(=O)N[C@@H](C)COc1cccc(Nc2cc(-c3ccnc(N4CCn5c(cc6c5CC(C)(C)C6)C4=O)c3CO)cn(C)c2=O)n1', 'Ki', '0.612 nM');

From here, focus on the item given below.
Q) I'd like to know its Ki. The compound in question is C=CC(=O)N(C)CCOc1cccc(Nc2cc(-c3ccnc(N4CCn5c(cc6c5CC(C)(C)C6)C4=O)c3CO)cn(C)c2=O)n1
A) 1.75 nM
